The measurements presented in this section are drawn from the supplement of paper PMC10307832.

# Test system: NCI-H2347
# ASSAY COMMENT: relative viability (nuclei count vs DMSO), 5 days (fraction); higher = more cells survive
# COND: first compound 0.002 µM
Overview of recorded relative viability for various compounds
When you answer, write just the number.

Here is how some compounds turned out for relative viability.
COMPOUND	TESTED SYSTEM	ENDPOINT VALUE
CCNC(=O)c1noc(-c2cc(C(C)C)c(O)cc2O)c1-c1ccc(CN2CCOCC2)cc1 [Luminespib] + Nc1nc2[nH]cc(CCc3ccc(C(=O)N[C@@H](CCC(=O)O)C(=O)O)cc3)c2c(=O)[nH]1 [Pemetrexed] (partner 0.2 µM)	NCI-H2347	0.402
CCNC(=O)c1noc(-c2cc(C(C)C)c(O)cc2O)c1-c1ccc(CN2CCOCC2)cc1 [Luminespib] + CC(=O)c1c(C)c2cnc(Nc3ccc(N4CCNCC4)cn3)nc2n(C2CCCC2)c1=O [Palbociclib] (partner 0.5 µM)	NCI-H2347	0.37
CCNC(=O)c1noc(-c2cc(C(C)C)c(O)cc2O)c1-c1ccc(CN2CCOCC2)cc1 [Luminespib] + C[C@@H](Oc1cc(-c2cnn(C3CCNCC3)c2)cnc1N)c1c(Cl)ccc(F)c1Cl [Crizotinib] (partner 1 µM)	NCI-H2347	0.701
CCNC(=O)c1noc(-c2cc(C(C)C)c(O)cc2O)c1-c1ccc(CN2CCOCC2)cc1 [Luminespib] + Nc1ncn([C@H]2C[C@H](O)[C@@H](CO)O2)c(=O)n1 [Decitabine] (partner 2 µM)	NCI-H2347	0.603

# context switch: different compound, same relative viability
Short answer for CCNC(=O)c1noc(-c2cc(C(C)C)c(O)cc2O)c1-c1ccc(CN2CCOCC2)cc1 [Luminespib] + O=C(CCCCCCC(=O)Nc1ccccc1)NO [Vorinostat] (partner 1 µM) : relative viability was 0.54

---

# Tested on: NCI-H23
# ASSAY COMMENT: relative viability (nuclei count vs DMSO), 5 days (fraction); higher = more cells survive
# COND: first compound 0.02 µM
Overview of recorded relative viability for various compounds
When you answer, write just the number.

COMPOUND	relative viability
CN1CCN(CCOc2cc(OC3CCOCC3)c3c(Nc4c(Cl)ccc5c4OCO5)ncnc3c2)CC1 [Saracatinib] + CCNC(=O)c1noc(-c2cc(C(C)C)c(O)cc2O)c1-c1ccc(CN2CCOCC2)cc1 [Luminespib] (partner 0.01 µM)	0.247

# context switch: different compound, same relative viability
Short answer for CN1CCN(CCOc2cc(OC3CCOCC3)c3c(Nc4c(Cl)ccc5c4OCO5)ncnc3c2)CC1 [Saracatinib] + Nc1ncn([C@H]2C[C@H](O)[C@@H](CO)O2)c(=O)n1 [Decitabine] (partner 2 µM) : relative viability was 0.208

---

# Tested on: NCI-H2023
# ASSAY COMMENT: relative viability (nuclei count vs DMSO), 5 days (fraction); higher = more cells survive
# COND: first compound 0.8 µM
Overview of recorded relative viability for various compounds

Here is how some compounds turned out for relative viability.
COMPOUND	relative viability
Nc1cccc2c1CN(C1CCC(=O)NC1=O)C2=O (stereo not drawn) [Lenalidomide] + CS(=O)(=O)CCNCc1ccc(-c2ccc3ncnc(Nc4ccc(OCc5cccc(F)c5)c(Cl)c4)c3c2)o1 [Lapatinib] (partner 2 µM)	0.859
Nc1cccc2c1CN(C1CCC(=O)NC1=O)C2=O (stereo not drawn) [Lenalidomide] + C[C@]1(O)C[C@@H](c2nc(-c3ccc4ccc(-c5ccccc5)nc4c3)c3c(N)nccn32)C1 [Linsitinib] (partner 1 µM)	0.831

# context switch: different compound, same relative viability
Short answer for Nc1cccc2c1CN(C1CCC(=O)NC1=O)C2=O (stereo not drawn) [Lenalidomide] + N=C(N)NC(=N)NCCc1ccccc1 [Phenformin] (partner 250 µM) : relative viability was 0.522
